Values from the supplement of paper PMC11061612

Tested on: MV-4-11 (Acute Myeloid Leukemia);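 further: after 72 h of two-drug dosing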
Test: Bliss excess, mean over the matrix (fraction); higher = more synergy
observed.property: Bliss excess

compound	target.of.assay	quantitative.readout
C[C@@H]1COCCN1c1cc(C2([S@](C)(=N)=O)CC2)nc(-c2ccnc3[nH]ccc23)n1 [AZD6738] + C1CC(C1)(C(=O)[O-])C(=O)[O-].N.N.[Pt+2] [Carboplatin] (first compound max 10 µM, 7x7, partner max 10 µM)	MV-4-11 (Acute Myeloid Leukemia)	-0.0339
CN(CCO)CC[C@H](CSc1ccccc1)Nc1ccc(S(=O)(=O)NC(=O)c2ccc(N3CCC([C@@H](O)c4ccccc4-c4ccc(Cl)cc4)CC3)cc2)cc1S(=O)(=O)C(F)(F)F [AZD4320] + Cn1cnc2c(F)c(Nc3ccc(Br)cc3Cl)c(C(=O)NOCCO)cc21 [Selumetinib] (first compound max 1 µM, 7x7, partner max 3 µM)	MV-4-11 (Acute Myeloid Leukemia)	0.0513
COc1cccc(OCCCN)c1-c1cc(Nc2cnc(C#N)cn2)n[nH]1 [Prexasertib] + C[C@@H]1COCCN1C2=NC(=NC(=C2)C3(CC3)[S@](=N)(=O)C)C4=C5C=CNC5=NC=C4 [AZD6738] (first compound max 1 µM, 7x7, partner max 10 µM)	MV-4-11 (Acute Myeloid Leukemia)	-0.0356
Cc1c2c(nn1C)CSCc1cc(n(C)n1)CSc1cc(c3ccccc3c1)OCCCc1c(C(=O)O)n(C)c3c-2c(Cl)ccc13 [AZD5991] + Cn1cnc2c(F)c(Nc3ccc(Br)cc3Cl)c(C(=O)NOCCO)cc21 [Selumetinib] (first compound max 1 µM, 7x7, partner max 3 µM)	MV-4-11 (Acute Myeloid Leukemia)	0.0172
